test: Pharmacokinetics assay in rats
Type: in vivo, SD rats
statedConditions: both sexes, SD, rat, plasma, po, 50 mg/kg, SD rats, intragastric, 50 mg/Kg (as free acid); read-out: Plasma Conc. Cmax
measurementType: log10 Cmax (log10 of the value in ng/mL)
Heads up, the numbers here are log10 of Cmax in ng/mL units.

Query :: # lookup: log10 Cmax of CC1=NN(c2ccc(C)c(C)c2)C(=O)/C1=N\Nc1cccc(-c2cccc(C(=O)O)c2)c1O [Eltrombopag, eltrombopag, reference compound]
Result :: 4.79

Query :: # lookup: log10 Cmax of CC1=NN(c2ccc3c(c2)CCCC3)C(=O)/C1=N\Nc1cccc(-c2coc(C(=O)O)c2)c1O [Example 22f]
Result :: 3.94

Query :: # lookup: log10 Cmax of CC1=NN(c2ccc3c(c2)CCCC3)C(=O)/C1=N\Nc1cccc(-c2ccc(C(=O)[O-])o2)c1[O-].[Na+].[Na+] [Example 14]
Result :: 4.25

Query :: # lookup: log10 Cmax of CC1=NN(c2ccc3c(c2)CCCC3)C(=O)/C1=N\Nc1cccc(-c2coc(C(=O)O)c2)c1O.NCCO.NCCO [Example 22]
Result :: 4.60

Query :: # lookup: log10 Cmax of CC1=NN(c2ccc3c(c2)CCC3)C(=O)/C1=N\Nc1cccc(-c2cccc(C(=O)O)c2)c1O.NCCO.NCCO [Example 1]
Result :: 4.95

Query :: # lookup: log10 Cmax of CC1=NN(c2ccc3c(c2)CCC3)C(=O)/C1=N\Nc1cccc(-c2csc(C(=O)O)c2)c1O.NCCO.NCCO [Example 19]
Result :: 4.32

Query :: # lookup: log10 Cmax of CC1=NN(c2ccc3c(c2)CCC3)C(=O)/C1=N\Nc1cccc(-c2ccc(C(=O)O)o2)c1O.NCCO.NCCO [Example 16]
Result :: 4.29

Query :: # lookup: log10 Cmax of CC1=NN(c2ccc3c(c2)C(C)(C)CC3)C(=O)/C1=N\Nc1cccc(-c2ccc(C(=O)O)o2)c1O.NCCO.NCCO [Example 4]
Result :: 3.37

Query :: # lookup: log10 Cmax of CC1=NN(c2ccc3c(c2)CCCC3)C(=O)/C1=N\Nc1cccc(-c2ccc(C(=O)O)o2)c1O.NCCO.NCCO [Example 7]
Result :: 4.87

Where do the numbers come from? From patent US9120762B2.
